# system_name: human Gal-3 (hGal-3) (Homo sapiens (Human), UniProt P17931)
# Sequence (P17931 whole entry): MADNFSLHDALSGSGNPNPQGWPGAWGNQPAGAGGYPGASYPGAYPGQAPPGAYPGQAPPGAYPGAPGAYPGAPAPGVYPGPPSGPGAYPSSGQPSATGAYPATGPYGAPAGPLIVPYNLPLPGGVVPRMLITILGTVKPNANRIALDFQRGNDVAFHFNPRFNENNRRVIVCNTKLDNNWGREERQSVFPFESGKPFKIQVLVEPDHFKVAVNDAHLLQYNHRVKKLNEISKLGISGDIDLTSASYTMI
# test_description: competitive binding assay: biotinylated hGal-3 binding to microplate-adsorbed asialofetuin (ASF)
# test_settings: Table 9; 2-OMe-Gal inhibitors; read-out: IC50 (Gal-3 inhibition)
pIC50: −log10 of the molar value.
recorded_metric: pIC50

- compound: "CO[C@@H]1[C@@H](n2cc(-c3cc(F)c(F)c(F)c3)nn2)[C@@H](O)[C@@H](CO)O[C@H]1S[C@H](c1ncccc1C1CC1)C1(O)CCC(F)(F)CC1 [Example 2.44.134R.I.]"
  pIC50: 7.22

(a) CO[C@@H]1[C@@H](n2cc(-c3cc(F)c(F)c(F)c3)nn2)[C@@H](O)[C@@H](CO)O[C@H]1S[C@H](c1nnccc1C)C1(O)CCC(F)(F)CC1 [Example 2.44.135R.I.]
(b) CO[C@@H]1[C@@H](n2cc(-c3cc(F)c(F)c(F)c3)nn2)[C@@H](O)[C@@H](CO)O[C@H]1S[C@H](c1ncccc1C(C)C)C1(O)CCC(F)(F)CC1 [Example 2.44.132R.I.]
Sorting ascending by pIC50, which comes first: a or b ? When you have decided, please share the label of that item.
b

====

# system_name: human Gal-3 (hGal-3) (Homo sapiens (Human))
# test_description: competitive binding assay: biotinylated hGal-3 binding to microplate-adsorbed asialofetuin (ASF)
# test_settings: Table 5; read-out: IC50 (Gal-3 inhibition)
recorded_metric: IC50 (nM)

Worked examples follow.
- compound: "OC[C@H]1O[C@@H](S[C@H](c2ncccc2C(F)(F)F)C2(O)CCC(F)(F)CC2)[C@H](O)[C@@H](n2cc(-c3cc(F)c(F)c(F)c3)nn2)[C@H]1O [Example 2.44.125R.]"
  u: "nM"
  IC50: 50
- compound: "OC[C@H]1O[C@@H](S[C@@H](c2ccccc2C(F)(F)F)C2(O)CCOCC2)[C@H](O)[C@@H](n2cc(-c3cc(F)c(F)c(F)c3)nn2)[C@H]1O [Example 2.41.112S.]"
  u: "nM"
  IC50: 6000

(1) CN1CCC(O)([C@H](S[C@@H]2O[C@H](CO)[C@H](O)[C@H](n3cc(-c4cc(F)c(F)c(F)c4)nn3)[C@H]2O)c2ncccc2C(F)(F)F)CC1 [Example 2.40.125R.]
(2) CN1CCC(O)([C@H](S[C@@H]2O[C@H](CO)[C@H](O)[C@H](n3cc(-c4cc(F)c(F)c(F)c4)nn3)[C@H]2O)c2ccccc2C(F)(F)F)CC1 [Example 2.40.112R.]
Between the two listed entries 1 and 2 , which has its IC50 at the higher number? State the label of the item chosen.
2

====

# system_name: human Gal-3 (hGal-3) (Homo sapiens (Human), UniProt P17931)
# test_description: competitive binding assay: biotinylated hGal-3 binding to microplate-adsorbed asialofetuin (ASF)
# test_settings: Table 11; read-out: IC50 (Gal-3 inhibition)
pIC50: −log10 of the molar value.
recorded_metric: pIC50

- compound: "CO[C@@H]1[C@@H](n2cc(-c3cc(F)c(F)c(F)c3)nn2)[C@@H](O)[C@@H](CO)O[C@H]1S[C@@H](c1nccc(Cl)c1Cl)C1(O)CCC(F)(F)CC1 (single isomer, unassigned) [Example 2.44.143R.I.]"
  system_name: "human Gal-3 (hGal-3) (Homo sapiens (Human), UniProt P17931)"
  pIC50: 7.15
- compound: "CO[C@@H]1[C@@H](n2cc(-c3cc(F)c(F)c(F)c3)nn2)[C@@H](O)[C@@H](CO)O[C@H]1S[C@@H](c1ncccc1C)[C@@]1(O)CCOC(C)(C)C1 [Example 2.43.126SR.I.]"
  system_name: "human Gal-3 (hGal-3) (Homo sapiens (Human), UniProt P17931)"
  pIC50: 5.46
- compound: "CO[C@@H]1[C@@H](n2cc(-c3cc(F)c(F)c(F)c3)nn2)[C@@H](O)[C@@H](CO)O[C@H]1S[C@H](c1noc(C2CC2)c1C)C1(O)CCC(F)(F)CC1 [Example 2.44.145R.I.]"
  system_name: "human Gal-3 (hGal-3) (Homo sapiens (Human), UniProt P17931)"
  pIC50: 6.60
- compound: "CO[C@@H]1[C@@H](n2cc(-c3cc(F)c(F)c(F)c3)nn2)[C@@H](O)[C@@H](CO)O[C@H]1S[C@H](c1ncccc1C)[C@@]1(O)CCOC(C)(C)C1 [Example 2.43.126RR.I.]"
  system_name: "human Gal-3 (hGal-3) (Homo sapiens (Human), UniProt P17931)"
  pIC50: 6.14
- compound: "CCCc1onc(C(S[C@@H]2O[C@H](CO)[C@H](O)[C@H](n3cc(-c4cc(F)c(F)c(F)c4)nn3)[C@H]2OC)C2(O)CCC(F)(F)CC2)c1CC (stereo partly shown)"
  system_name: "human Gal-3 (hGal-3) (Homo sapiens (Human), UniProt P17931)"
  pIC50: 6.92

(P) CO[C@@H]1[C@@H](n2cc(-c3cc(F)c(F)c(F)c3)nn2)[C@@H](O)[C@@H](CO)O[C@H]1SC(c1noc(C2CC2)c1C)C1(O)CCC(F)(F)CC1 (stereo partly shown)
(Q) CO[C@@H]1[C@@H](n2cc(-c3cc(F)c(F)c(F)c3)nn2)[C@@H](O)[C@@H](CO)O[C@H]1SC(c1nccc(C(F)(F)F)c1C)C1(O)CCC(F)(F)CC1 (stereo partly shown)
(R) CO[C@@H]1[C@@H](n2cc(-c3cc(F)c(F)c(F)c3)nn2)[C@@H](O)[C@@H](CO)O[C@H]1S[C@@H](c1nccc(C(F)(F)F)c1C)C1(O)CCC(F)(F)CC1 [Example 2.44.147S.I.]
(S) CO[C@@H]1[C@@H](n2cc(-c3cc(F)c(F)c(F)c3)nn2)[C@@H](O)[C@@H](CO)O[C@H]1S[C@H](c1nccc(Cl)c1C)C1(O)CCC(F)(F)CC1 [Example 2.44.141R.I.]
Put the items in sequence by pIC50, from largest down. As an answer, provide the labels arranged in the order called for.
S, Q, P, R
(S: 7.15, Q: 6.62, P: 6.15, R: 5.28)

====

# system_name: UniProt:P17931
# test_description: competitive binding assay: biotinylated hGal-3 binding to microplate-adsorbed asialofetuin (ASF)
# test_settings: Gal-3 inhibition; binding of biotinylated hGal-3 to ASF; mean values; read-out: IC50
pIC50: −log10 of the molar value.
recorded_metric: pIC50

- compound: "CCO[C@@H]1[C@@H](n2cc(-c3cc(F)c(F)c(F)c3)nn2)[C@@H](O)[C@@H](CO)O[C@H]1S[C@@H](c1ncccc1C)C1(O)CCC(F)(F)CC1 [Example 2.44.126S.II.]"
  readout_value: 6.01
- compound: "COCC(S[C@@H]1O[C@H](CO)[C@H](O)[C@H](n2cc(-c3cc(F)c(F)c(F)c3)nn2)[C@H]1O)c1ccccc1 (some centres unmarked) [Example 2.30.100.OMe, reference compound]"
  readout_value: 5.54
- compound: "OC[C@H]1O[C@@H](SC(c2nccnc2Cl)C2(O)CCC(F)(F)CC2)[C@H](O)[C@@H](n2cc(-c3cc(F)c(F)c(F)c3)nn2)[C@H]1O (some centres unmarked) [Example 2.44.133.]"
  readout_value: 7.40

(A) Cc1cccnc1[C@H](S[C@@H]1O[C@H](CO)[C@H](O)[C@H](n2cc(-c3cc(F)c(F)c(F)c3)nn2)[C@H]1O)C1(O)CCS(=O)(=O)CC1 [Example 2.66.126S.]
(B) Cc1nc([C@@H](S[C@@H]2O[C@H](CO)[C@H](O)[C@H](n3cc(-c4cc(F)c(F)c(F)c4)nn3)[C@H]2O)C(C)(C)O)c(C)o1 [Example 2.31.122R.]
Please indicate which has the smaller reported pIC50: A , or B . // caller expects the label of the chosen entry
A

====

# system_name: human Gal-3 (hGal-3) (Homo sapiens (Human), UniProt P17931)
# test_description: competitive binding assay: biotinylated hGal-3 binding to microplate-adsorbed asialofetuin (ASF)
# test_settings: Gal-3 inhibition; binding of biotinylated hGal-3 to ASF; mean values; read-out: IC50
# Description: If not explicitly mentioned otherwise, the inhibition data refer to the binding of biotinylated human Gal-3 (hGal-3). Evaluation of Compound Inhibitory Activity (IC50) The inhibitory activity of compounds is determined in competitive binding assays. Briefly, compounds are serially diluted in DMSO (working dilutions). […] The calculated IC50 values may fluctuate depending on the daily assay performance. […]
recorded_metric: IC50 (nM)

- compound: "CC(C)(O)C(S[C@@H]1O[C@H](CO)[C@H](O)[C@H](n2cc(-c3cc(F)c(F)c(F)c3)nn2)[C@H]1O)c1ccccc1-c1ccccc1 (stereo partly shown) [Example 2.31.110.]"
  system_name: "human Gal-3 (hGal-3) (Homo sapiens (Human), UniProt P17931)"
  u: "nM"
  IC50: 180
- compound: "Cc1cscc1C(S[C@@H]1O[C@H](CO)[C@H](O)[C@H](n2cc(-c3cc(F)c(F)c(F)c3)nn2)[C@H]1O)C(C)(C)O (stereo partly shown) [Example 2.31.124.]"
  system_name: "human Gal-3 (hGal-3) (Homo sapiens (Human), UniProt P17931)"
  u: "nM"
  IC50: 500
- compound: "Cc1ncccc1C(S[C@@H]1O[C@H](CO)[C@H](O)[C@H](n2cc(-c3cc(F)c(F)c(F)c3)nn2)[C@H]1O)C(C)(C)O (stereo partly shown) [Example 2.31.116.]"
  system_name: "human Gal-3 (hGal-3) (Homo sapiens (Human), UniProt P17931)"
  u: "nM"
  IC50: 300
- compound: "Cc1ccccc1[C@@H](S[C@@H]1O[C@H](CO)[C@H](O)[C@H](n2cc(-c3cc(F)c(F)c(F)c3)nn2)[C@H]1O)C(C)(C)O [Example 2.31.102R.]"
  system_name: "human Gal-3 (hGal-3) (Homo sapiens (Human), UniProt P17931)"
  u: "nM"
  IC50: 120
- compound: "Cc1c(F)cc(-c2cn([C@H]3[C@@H](O)[C@@H](CO)O[C@@H](SC(c4ccccc4C(F)(F)F)C(C)(C)O)[C@@H]3O)nn2)cc1F (stereo partly shown) [Example 3.31.112.]"
  system_name: "human Gal-3 (hGal-3) (Homo sapiens (Human), UniProt P17931)"
  u: "nM"
  IC50: 210

(a) Cc1cccnc1[C@@H](S[C@@H]1O[C@H](CO)[C@H](O)[C@H](n2cc(-c3cc(F)c(F)c(F)c3)nn2)[C@H]1O)C1(O)CCS(=O)(=O)CC1 [Example 2.66.126R.]
(b) Cc1c(F)cccc1[C@H](S[C@@H]1O[C@H](CO)[C@H](O)[C@H](n2cc(-c3cc(F)c(F)c(F)c3)nn2)[C@H]1O)C(C)(C)O [Example 2.31.114S.]
Hi, I'm comparing two records. Which one has the lower IC50, a or b ? Reply with the label of the item you choose.
a

(1) Cc1conc1[C@H](S[C@@H]1O[C@H](CO)[C@H](O)[C@H](n2cc(-c3cc(F)c(F)c(F)c3)nn2)[C@H]1O)C(C)(C)O [Example 2.31.120S.]
(2) CC(C)(O)C(S[C@@H]1O[C@H](CO)[C@H](O)[C@H](n2cc(-c3ccc4ccccc4c3)nn2)[C@H]1O)c1ccccc1C(F)(F)F (stereo partly shown) [Example 4.31.112]
Sorting by IC50 in descending order, would 1 or 2 appear first? API: response body contains the label of the selected item.
1
(1: 12400 nM, 2: 2240 nM)

(A) CC(C)(O)C(S[C@@H]1O[C@H](CO)[C@H](O)[C@H](n2cc(-c3cc(F)c(F)c(F)c3)nn2)[C@H]1O)c1ccccc1C(F)(F)F (stereo partly shown) [Example 2.31.112.]
(B) CC(C)(O)[C@H](S[C@@H]1O[C@H](CO)[C@H](O)[C@H](n2cc(-c3cc(F)c(F)c(F)c3)nn2)[C@H]1O)c1ccccc1C1CC1 [Example 2.31.106R.]
Lab note: record which item had the higher IC50, A or B . Which one? Tell me its label.
A
(A: 250 nM, B: 140 nM)
